B1: TRIM63 (parent)
chain: QEKKLSFIEALIQQYQEQLDKSTK

# Variants of: B1
# measurement_notes: protein stability index of a GFP-peptide fusion (GPS, HEK-293T) (PSI 1-6); higher = more stable;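 further: lentivirally expressed fusions sorted by FACS into six bins by GFP to DsRed ratio, PSI derived from sequencing read proportions per bin multiplied by bin number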
# condition_parameters: c terminus: a fixed tail appended
Label MET when protein stability index is at or above 3; anything below gets NOT MET.

Lookup: I'd appreciate it if you could say whether `S22W` has protein stability index at least equal to 3.
Found: NOT MET

Lookup: Check this variant for protein stability index at or above 3: `K3R`
Found: NOT MET

Lookup: Can `L19F` be said to have protein stability index at or above 3?
Found: NOT MET

Lookup: Is protein stability index for `T23W` at or above 3?
Found: NOT MET

Lookup: Is the recorded value of protein stability index equal to or greater than 3 for this variant? `K21P`
Found: NOT MET

Lookup: Test whether the variant `Q16I` records protein stability index of 3 or higher.
Found: NOT MET

Lookup: Identify whether the reported protein stability index of the following variant is 3 or greater: `S6M`
Found: NOT MET

Lookup: In plain terms: is recorded protein stability index at least 3 for `Q1V` ?
Found: NOT MET

Lookup: Assess whether reported protein stability index for `K4H` sits at 3 or higher.
Found: MET

Lookup: Evaluate `Q13W` : protein stability index at minimum 3?
Found: NOT MET

Lookup: API: above_or_equal(metric=protein stability index, cutoff=3) for item `T23H`
Found: NOT MET

Lookup: Assess whether reported protein stability index for `D20G` sits at 3 or higher.
Found: NOT MET

Lookup: Is protein stability index for `Q13E` at or above 3?
Found: MET

Lookup: Quick check: does `K4M` have protein stability index greater than or equal to 3?
Found: NOT MET

Lookup: Answer whether protein stability index of `I12S` is greater than or equal to 3.
Found: MET

Lookup: I'd appreciate it if you could say whether `K21W` has protein stability index at least equal to 3.
Found: NOT MET

Lookup: API: above_or_equal(metric=protein stability index, cutoff=3) for item `Q13F`
Found: NOT MET

Lookup: I'd appreciate it if you could say whether `S6R` has protein stability index at least equal to 3.
Found: MET

Lookup: Is the recorded value of protein stability index equal to or greater than 3 for this variant? `L19A`
Found: MET

Lookup: Hello, I need to know if `T23C` has measured protein stability index not below 3. Thanks!
Found: NOT MET

Lookup: For this variant, is measured protein stability index 3 or higher? `F7I`
Found: NOT MET

Lookup: Reported protein stability index at or above 3? `F7P`
Found: MET

Lookup: Hi team, for `L5M` , is the recorded protein stability index at or above 3?
Found: NOT MET

Lookup: // inclusive: protein stability index at least 3? input: `E9Q`
Found: NOT MET

Lookup: Quick check, protein stability index >= 3? `Y15S`
Found: MET

Lookup: Entry `K4V` : is its protein stability index no less than 3?
Found: NOT MET

Lookup: Given `Q16L` , state whether its protein stability index is at least 3.
Found: NOT MET

Lookup: Is the recorded value of protein stability index equal to or greater than 3 for this variant? `S6V`
Found: NOT MET

Lookup: Is protein stability index at least 3? Consider `Q14R`
Found: NOT MET

Lookup: Does the variant `Q13A` have recorded protein stability index that is 3 or more?
Found: NOT MET

Lookup: Please tell me: is the variant `I8W` at or over 3 in terms of protein stability index?
Found: MET

Lookup: Does protein stability index meet or surpass 3 for `S6H` ?
Found: NOT MET

Lookup: Decide: protein stability index of `F7S` >= 3?
Found: MET

Lookup: // inclusive: protein stability index at least 3? input: `Q14V`
Found: NOT MET

Lookup: Tell me whether protein stability index is at least 3 here: `Q16M`
Found: NOT MET

Lookup: Could you please find out whether `Q18D` has protein stability index that meets 3 or exceeds it?
Found: MET

Lookup: # bool: protein stability index of `L5T` >= 3
Found: NOT MET

Lookup: Quick check, protein stability index >= 3? `L11T`
Found: MET

Lookup: Can `L11A` be said to have protein stability index at or above 3?
Found: MET

Lookup: Please check the record `K24S` and state if its protein stability index is at or above 3.
Found: NOT MET

Lookup: For this variant, is measured protein stability index 3 or higher? `I8M`
Found: MET

Lookup: # check: protein stability index of `Y15N` is greater than or equal to 3
Found: MET

Values from the supplement of paper PMC10567573
